Target: dihydrooroate dehydrogenase (Homo sapiens, UniProt Q02127)
Construct: ultracentrifugation at 4° C. and 120,000×g for 60 minutes afforded a mitochondrial/microsomal fraction; endogenous in cells
Sequence (Q02127 whole entry): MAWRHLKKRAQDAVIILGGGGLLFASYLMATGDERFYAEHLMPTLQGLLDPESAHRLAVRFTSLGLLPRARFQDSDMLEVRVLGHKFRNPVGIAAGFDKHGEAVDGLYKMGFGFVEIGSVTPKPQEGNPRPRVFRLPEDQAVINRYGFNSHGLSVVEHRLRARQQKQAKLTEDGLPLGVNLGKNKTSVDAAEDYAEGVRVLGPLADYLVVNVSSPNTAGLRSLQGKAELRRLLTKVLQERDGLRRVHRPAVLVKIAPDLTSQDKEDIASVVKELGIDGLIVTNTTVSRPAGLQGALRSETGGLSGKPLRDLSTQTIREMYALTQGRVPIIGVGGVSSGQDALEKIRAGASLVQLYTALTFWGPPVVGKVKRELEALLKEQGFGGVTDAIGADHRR
Experiment: dihydroorotate dehydrogenase inhibition, U-937 mitochondrial/microsomal fraction, DCIP absorbance at 620 nm
Conditions: DHODH of human U-937 cell mitochondrial/microsomal fraction; 37° C., 120 minutes
Measured pIC50 of individual entries
Note: pIC50 values are expressed as the negative base-10 logarithm of concentration in M.

Illustrative cases are given below, each with its answer.
[
  {
    "COMPOUND_STRUCTURE_STRING": "Cc1cc(-c2ccc(NC(C)C)cc2F)c(C)cc1/C=C(/F)C(=O)NC(C)C",
    "EXPERIMENTAL_TARGET": "dihydrooroate dehydrogenase (Homo sapiens, UniProt Q02127)",
    "RECORDED_VALUE": 8.29
  },
  {
    "COMPOUND_STRUCTURE_STRING": "COc1c(C)c(-c2ccc(NC(C)C)cc2)c(OC)c(C)c1/C=C(\\C)C(=O)NC1CCCC1",
    "EXPERIMENTAL_TARGET": "dihydrooroate dehydrogenase (Homo sapiens, UniProt Q02127)",
    "RECORDED_VALUE": 8.48
  }
]

IN: Field request: pIC50 | item: CC/C(=C\c1cc(C)c(-c2ccc(NC3CCCC3)cc2)cc1C)C(=O)NC1CCCC1
OUT: 7.95

IN: Continue with C/C(=C\c1c(C)c(C)c(-c2ccc(NCc3ccco3)cc2)c(C)c1C)C(=O)NC(C)C
OUT: 8.55

IN: Continue with C/C(=C\c1c(C)c(C)c(-c2ccc(NC(C)C)cc2)c(C)c1C)C(=O)NC(C)C
OUT: 8.21

IN: Continue with C/C(=C\c1cc(C)c(-c2ccc(NC(C)C)cc2F)cc1C)C(=O)N[C@H](C)C(=O)O
OUT: 8.05
